Form field: growth (one value per entry).
# Test system: EKVX NSCLC
# Test Method Notes: NCI-60 one-dose screen, 48 h (100 = growth as untreated, 0 = no growth, -100 = all killed)
# Reported Conditions: 10 µM unless noted
Compounds without any hit were thinned out: in the full panel of roughly 83,000, 20% have a hit. Calls of active or inactive are those of the source. Rule for the calls: active = growth percent below 10; inactive = the rest.
Readout Label: growth

{"Compound": "CC/C=C\\C/C=C\\C[C@H]1C/C=C2/C(=O)C=C[C@@H]2C/C=C\\CCC(=O)O1", "Reported Measurement": "31.4% (inactive)"}
{"Compound": "O=S(=O)(Nc1ccc(Cl)c(F)c1)c1ccc(-c2cnc(C3CC3)o2)cc1", "Reported Measurement": "34.4% (inactive)"}
{"Compound": "O=c1cc(CSc2nnc(-c3ccc(F)cc3)o2)c2ccc3ccccc3c2o1", "Reported Measurement": "88.7% (inactive)"}
{"Compound": "C#CCOc1ccc2ncnc(Nc3cccc(CNC(=O)CCl)c3)c2c1", "Reported Measurement": "58.7% [8.25 µM] (inactive)"}
{"Compound": "COc1cccc(-c2nc3sccn3c2-c2ccnc(NCCNS(=O)(=O)c3ccc(F)cc3)c2)c1", "Reported Measurement": "28.2% (inactive)"}
{"Compound": "O=C1Nc2c(ccc(Cl)c2Cl)/C1=C\\c1cc(C(F)(F)F)cc(C(F)(F)F)c1", "Reported Measurement": "26.9% (inactive)"}
{"Compound": "COc1cccc(-c2nc(SCC(=O)Nc3ccc(C(=O)/C=C/c4ccc(OC)c(OC)c4)cc3)[nH]c(=O)c2C#N)c1", "Reported Measurement": "87.7% (inactive)"}
{"Compound": "O=C1/C(=C/c2ccccc2)SC(=S)N1CCc1ccc(O)cc1", "Reported Measurement": "91.9% (inactive)"}
{"Compound": "CCn1c(O)c(/C=N/NC(=O)C(C)c2ccc(CC(C)C)cc2)sc1=S (centres undefined)", "Reported Measurement": "41.1% (inactive)"}
{"Compound": "Cc1ccc(C2Oc3ccccc3C3CC(c4cccs4)=NN32)cc1 (centres undefined)", "Reported Measurement": "80.9% (inactive)"}
{"Compound": "CC1CCNC(C)C1 (centres undefined)", "Reported Measurement": "107% (inactive)"}
{"Compound": "CC1C(/C=N/Nc2ccccc2)C(C#N)(C#N)C1(C#N)C#N (centres undefined)", "Reported Measurement": "71.8% (inactive)"}
{"Compound": "COc1cc2c(cc1O)CC[C@@H]1[C@@H]2CC[C@]2(C)[C@@H](OCCN(C)C)CC[C@@H]12", "Reported Measurement": "65.2% (inactive)"}
{"Compound": "O=C(N=Nc1c(O)[nH]c2ccc(Br)cc12)c1cc(-c2ccccc2)on1", "Reported Measurement": "91.3% (inactive)"}
{"Compound": "O=[N+]([O-])c1ccc(Nc2nc(NCCN3CCOCC3)ncc2[N+](=O)[O-])cc1", "Reported Measurement": "88.2% (inactive)"}
{"Compound": "COc1cc2nc(N3CCCC3)nc(NCC3CCCCC3)c2cc1OC", "Reported Measurement": "40.2% (inactive)"}
{"Compound": "C=C(C)[C@@H]1CC[C@]2(C(=O)OC)CC[C@]3(C)[C@H](CC[C@@H]4[C@@]5(C)C/C(=C/c6ccc(OC)cc6)C(=O)C(C)(C)[C@@H]5CC[C@]43C)[C@@H]12", "Reported Measurement": "84.7% (inactive)"}
{"Compound": "O=C1OC(c2ccccc2)C(O)=C1c1ccccc1 (centres undefined)", "Reported Measurement": "104% (inactive)"}
{"Compound": "CC[C@@H]1O[C@H](O[C@@H](c2cnc[nH]2)[C@H](NC(=O)c2nc([C@H](CC(N)=O)NC[C@@H](N)C(N)=O)nc(N)c2C)C(=O)N[C@H](C)[C@H](O)[C@H](C)C(=O)N[C@@H](C(=O)NCCc2nc(-c3nc(C(=O)NCCCCN=C(N)N)cs3)cs2)[C@@H](C)O)[C@H](O[C@@H]2O[C@H](CO)[C@H](O)[C@H](OC(N)=O)[C@@H]2O)[C@H](C)[C@@H]1C", "Reported Measurement": "91.8% (inactive)"}
